System: AD38 cells
PROCEDURE SUMMARY: Viability of AD38 cells (Promega CellTiter-Glo)
Assay type: cell-based
CONDITION SUMMARY: 10 μM compound, 6 days, CellTiter-Glo luminescence normalized to DMSO control (100%)
PARAMETER MEASURED: AD38 Viability Normalized Result (cmpd/DMSO %) at 10 μM

COMPOUND: Cl.NCCCCc1ccc(-c2ncc(CNC(=O)c3ccc4c(c3)NC(=O)c3ccccc3S4(=O)=O)s2)cc1
RECORDED MEASUREMENT: 94

COMPOUND: O=C(NCc1cnc(-c2ccc3[nH]cnc3c2)s1)c1ccc2c(c1)NC(=O)c1ccccc1S2(=O)=O
RECORDED MEASUREMENT: 101

COMPOUND: CCOC(=O)c1cnn(-c2ncc(CNC(=O)c3ccc4c(c3)NC(=O)c3ccccc3S4(=O)=O)s2)c1
RECORDED MEASUREMENT: 97

COMPOUND: CCc1cc2c(cc1C(=O)NCc1cnc(-c3ccc(C#N)cc3F)s1)NC(=O)c1ccccc1S2(=O)=O
RECORDED MEASUREMENT: 109

COMPOUND: CN(C)CC(O)COc1ccc(-c2ncc(CNC(=O)c3ccc4c(c3)NC(=O)c3ccccc3S4(=O)=O)s2)cc1 (stereo not shown)
RECORDED MEASUREMENT: 88

COMPOUND: Nc1ncc(-c2ncc(CNC(=O)c3ccc4c(c3)NC(=O)c3ccccc3S4(=O)=O)s2)cn1
RECORDED MEASUREMENT: 105

COMPOUND: O=C(NCc1cnc(C(F)(F)F)s1)c1ccc2c(c1)NC(=O)c1ccccc1O2
RECORDED MEASUREMENT: 107

COMPOUND: O=C(NCc1cnc(N2CCOCC2)s1)c1ccc2c(c1)NC(=O)c1ccccc1S2
RECORDED MEASUREMENT: 97

COMPOUND: COc1ccc(Cc2ncc(CNC(=O)c3ccc4c(c3)NC(=O)c3ccccc3O4)s2)cc1
RECORDED MEASUREMENT: 89

COMPOUND: Nc1ccc(-c2ncc(CNC(=O)c3ccc4c(c3)NC(=O)c3ccccc3S4(=O)=O)s2)cc1
RECORDED MEASUREMENT: 100

COMPOUND: CS(=O)(=O)c1ccc(-c2ncc(CNC(=O)c3ccc4c(c3)NC(=O)c3ccccc3O4)s2)cc1
RECORDED MEASUREMENT: 94

COMPOUND: Cl.NCCCOc1ccc(-c2ncc(CNC(=O)c3ccc4c(c3)NC(=O)c3ccccc3S4(=O)=O)s2)cc1
RECORDED MEASUREMENT: 103

COMPOUND: CN(C)C1CN(Cc2ccc(-c3ncc(CNC(=O)c4ccc5c(c4)NC(=O)c4ccccc4S5(=O)=O)s3)cc2)C1
RECORDED MEASUREMENT: 100

COMPOUND: O=C(NCc1cnc(-c2ncco2)s1)c1ccc2c(c1)NC(=O)c1ccccc1S2(=O)=O
RECORDED MEASUREMENT: 91

COMPOUND: Cc1c(C(=O)NCc2cnc(-c3ccc(C#N)cc3)s2)cc(Br)c2c1NC(=O)c1ccccc1S2
RECORDED MEASUREMENT: 100

COMPOUND: O=C(NCc1scnc1C(F)(F)F)c1ccc2c(c1)NC(=O)c1ccccc1S2
RECORDED MEASUREMENT: 103

COMPOUND: N#Cc1ccc(-c2ncc(CNC(=O)c3ccc4c(c3)NC(=O)c3ccccc3N4CCO)s2)c(F)c1
RECORDED MEASUREMENT: 102

COMPOUND: Cc1c(C(=O)NCc2cnc(-c3ccc(F)cn3)s2)ccc2c1NC(=O)c1ccccc1S2(=O)=O
RECORDED MEASUREMENT: 100

COMPOUND: O=C(O)COc1ccc(-c2ncc(CNC(=O)c3ccc4c(c3)NC(=O)c3ccccc3O4)s2)cc1
RECORDED MEASUREMENT: 103

Source: patent US11814376B2
